Origin of the recorded values: the supplement of paper PMC6555819

system: PPARg:RXRa 90nM:30nM, anti-RXR (NR concentration 90 nM, RXRa partner concentration 30 nM); test: PBM binding z-score (relative to random genomic background probes); higher = stronger binding; sequences stand for … in GC…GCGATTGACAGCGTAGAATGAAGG
Parameter: PBM binding z-score. Scope: all listed entries.
observation_type: PBM binding z-score

INSERT INTO results (sequence_code, result_value) VALUES
  ('CGAAGTAGGTCAAGGACAGTGAATCTCCGCACGC', 6.44),
  ('TCTTGTAGATCAGCAGGTAAAGAAAGCTGGCCAA', 1.69),
  ('CCGACTTGGGCAGAAAGGTTACCATACCATCCGG', 0.892),
  ('GCTGTTAGGTCAGGTTGGTCAGCTAACGGGTACG', 0.138),
  ('GCTAGTTGATCAGTAAAAGGTCACACACCGGTCG', 3.46),
  ('TAGCCTAGGTCATGGGCCAGTAGACCACGCGAAC', 3.07),
  ('ACTATTAGTTGAGACGAGGGCACCCGATAGGTTG', 0.163),
  ('ACTATTAGTTGACTTAGGGCAAGCGATACGACGC', 0.144),
  ('ATATGTAGGTTACATCCGGGTCATTCGGGCTATG', 4.17),
  ('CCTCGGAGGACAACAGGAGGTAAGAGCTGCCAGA', -0.831),
  ('TAGCCTCGGTCAGATCGGGCCAGTATACGCTATA', -1.07),
  ('TGAATGAGGTTATAAGCTCAGGGAACGTTGCAAA', 1.54);

* * *

tested on: RARb homodimer (NR concentration 270 nM); experiment: PBM binding z-score (relative to random genomic background probes); higher = stronger binding; sequences stand for … in GC…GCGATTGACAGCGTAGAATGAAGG
Note to self: values exactly at 2 are yes. So PBM binding z-score at or above 2 is yes, below is no.

INSERT INTO measurements (sequence_code, label) VALUES
  ('ATCGAAAGGTCGAGGTGATTATAGAGAAAGGGAA', 'yes'),
  ('CCTCGAAGGACAACAGGAGGTCAGAGCTGCCAGA', 'yes'),
  ('AGAATGAGGCTACCAAAGATCAGGGAAACGCTTG', 'no'),
  ('ATACCAAGGTGATCGTGAGGTCGGTGATACTAAC', 'no'),
  ('TCTTGTAGATCAAGCCGGTTAAGAAAGCCTGAGT', 'no'),
  ('CGTCCAAGGTCAAAGGTCAGAGAAGAGATGACGG', 'yes'),
  ('CCTCCTGGGCCAAAAAGGTCATTGATGCCGATAA', 'yes'),
  ('CCTGCTAGGTCAATGTTCAGCTAAAGCAGCTCGC', 'yes'),
  ('CCTCGCAGGCCAATCTGGGTCACTCAAGGCTTGA', 'yes'),
  ('TCTATTAGTTGAAGGGCAACGGACGAGTCCGTTT', 'no'),
  ('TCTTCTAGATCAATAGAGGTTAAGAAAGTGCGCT', 'no'),
  ('CAGACTAGGTCACAGAGGTCAAAGTCCGTGCGTA', 'yes'),
  ('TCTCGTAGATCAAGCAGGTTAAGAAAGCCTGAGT', 'no'),
  ('AGAACGACGGCACGCTGAGTTGATAGCAGAGTAG', 'no'),
  ('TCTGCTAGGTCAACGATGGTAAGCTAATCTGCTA', 'yes'),
  ('CAAACTAGCTCAAAGGTCAAAGTCGAGCCAACCA', 'yes'),
  ('GCGACTGGGGCATCAGCAGGTTACCAAAACTTAA', 'no'),
  ('TCTATTAGTTGATTAGGGCAACCGCAACAGCGGA', 'no'),
  ('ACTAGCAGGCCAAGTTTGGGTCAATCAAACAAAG', 'yes'),
  ('CTCGCAAGGTCGGTTGAGGTGAGTATACGGATAA', 'no'),
  ('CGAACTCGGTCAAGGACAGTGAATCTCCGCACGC', 'no'),
  ('CCTATTAGTTGACCATAGGGGCAACCGAAGCTCG', 'no'),
  ('TAGCCTAGGTCATGCAGGCCAGTATAGTGTCGGC', 'yes'),
  ('CCGACGGGGGCATAAGGTTACCATAAGCCAGCCC', 'yes'),
  ('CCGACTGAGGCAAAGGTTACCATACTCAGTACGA', 'no'),
  ('AGAATGAGGTTATTAATATCAGGGAATTGCGGTC', 'no');
